# Target: human IL-21R expressed on cells (human, UniProt Q9HBE5 20-538)
# Sequence (Q9HBE5 20-538 limits assumed): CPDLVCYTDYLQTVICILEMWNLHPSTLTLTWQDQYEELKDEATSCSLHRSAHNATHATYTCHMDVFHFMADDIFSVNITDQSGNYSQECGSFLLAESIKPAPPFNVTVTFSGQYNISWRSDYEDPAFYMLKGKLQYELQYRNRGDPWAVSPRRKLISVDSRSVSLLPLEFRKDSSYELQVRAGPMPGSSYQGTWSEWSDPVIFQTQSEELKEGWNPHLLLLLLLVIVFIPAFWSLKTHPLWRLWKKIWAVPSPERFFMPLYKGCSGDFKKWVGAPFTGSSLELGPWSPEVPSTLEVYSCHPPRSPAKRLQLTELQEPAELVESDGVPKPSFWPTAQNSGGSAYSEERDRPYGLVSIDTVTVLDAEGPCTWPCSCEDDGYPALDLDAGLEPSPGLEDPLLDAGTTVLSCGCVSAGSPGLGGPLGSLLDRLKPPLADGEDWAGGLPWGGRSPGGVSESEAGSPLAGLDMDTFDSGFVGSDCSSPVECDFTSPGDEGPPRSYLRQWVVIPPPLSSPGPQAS
# Experiment Notes: cell-based or functional assay
Readout Type: IC50, Human IL-21R-BaF3 Neutralization Assay (nM)
Answer in nM, number only, no unit symbol.

Examples with answers:
scFv H5 (scFv) scFv: QVQLQESGPGLVKTSETLSLTCAVSGYSISSGYYWGWIRQPPGKGLEWIGSISHTGNTYYNPPLKSRVTISVDTSKNQFSLKLSSVTAADTAVYYCARFLGFGRPEYWGKGTLVTVSSGGGGSGGGGSGGGGSALSSELTQDPPVSVALGQTVTLTCQGDSLRTYYASWYQQKSGQAPILLLYGKHKRPSGIPDRFSGSTSGDTASLTITGAQAEDEADYYCNSRDSSGNPHVLFGGGTQLTVL    7.9
scFv L20 (scFv) scFv: QVQLQESGPGLVKTSETLSLTCAVSGYSISSGYYWGWIRQPPGKGLEWIGSISHTGNTYYNPPLKSRVTISVDTSKNQFSLKLSSVTAADTAVYYCARGGGISRPEYWGKGTLVTVSSGGGGSGGGGSGGGGSALSSELTQDPPVSVALGQTVTLTCQGDSLRTYYASWYQQKSGQAPILLLYGKHKRPSGIPDRFSGSTSGDTASLTITGAQAEDEADYYCVSRSAKGNPHVLFGGGTQLTVL    3.1

Prompt: Check the records and state IC50, Human IL-21R-BaF3 Neutralization Assay for scFv L2 (scFv) scFv: QVQLQESGPGLVKTSETLSLTCAVSGYSISSGYYWGWIRQPPGKGLEWIGSISHTGNTYYNPPLKSRVTISVDTSKNQFSLKLSSVTAADTAVYYCARGGGISRPEYWGKGTLVTVSSGGGGSGGGGSGGGGSALSSELTQDPPVSVALGQTVTLTCQGDSLRTYYASWYQQKSGQAPILLLYGKHKRPSGIPDRFSGSTSGDTASLTITGAQAEDEADYYCVARSVVGNPHVLFGGGTQLTVL
Response: 3.1
